Measured values drawn from ChEMBL document CHEMBL1127238 for this set.

clearance for assorted compounds
# assay: Compound was tested for plasma clearance in rats after 5 mg/kg of intravenous dosing
# Type: ADME, organism-based
# Set-up: dose 5 mg/kg, route intravenous
# particulars: rat
Hi! Could you send only the number? It should be in mL/min/kg, unit omitted.

CC(=O)c1cccc(CC[C@H](SC[C@@H](C)C(=O)O)c2cccc(/C=C/c3ccc4ccc(Cl)cc4n3)c2)c1 :: 2
C[C@H](CS[C@@H](CCc1cccc(CO)c1)c1cccc(/C=C/c2ccc3ccc(Cl)cc3n2)c1)C(=O)O :: 2.5
C[C@H](CS[C@@H](CCc1ccccc1CO)c1cccc(/C=C/c2ccc3ccc(Cl)cc3n2)c1)C(=O)O :: 5

Lab note: next compound to report on.
Q: Endpoint output: clearance of CC(=O)c1ccccc1CC[C@H](SC[C@@H](C)C(=O)O)c1cccc(/C=C/c2ccc3ccc(Cl)cc3n2)c1 . Value?
Result: 11
